target: calcineurin (CN) catalytic subunit A (CNA); serine/threonine-protein phosphatase 2B catalytic subunit alpha isoform (Homo sapiens, UniProt Q08209); construct: human CNA/CNB (CNA: M1-N370, CNB: 16-170), His-tagged, E. coli; with calcineurin B (CNB); experiment: microscale thermophoresis (MST); supported by HDX-MS, CETSA and in vitro activation of CN
ASSAY_READOUT: Kd (nM)

structure=C=C(C)[C@@H]1[C@H]2OC(=O)[C@@H]1[C@]1(O)[C@H]3O[C@H]3[C@]3(CO3)[C@]1(C)[C@@H]2O assay_readout=Kd units_symbol=nM recorded_result=280

----------
target: calcineurin (CN) catalytic subunit A (CNA), CN-R254K (Homo sapiens, UniProt Q08209, R254K); construct: human CNA/CNB (CNA: M1-N370, CNB: 16-170); with calcineurin B (CNB); experiment: microscale thermophoresis (MST)
pKd: −log10 of the molar value.
ASSAY_READOUT: pKd

structure=C=C(C)[C@@H]1[C@H]2OC(=O)[C@@H]1[C@]1(O)[C@H]3O[C@H]3[C@]3(CO3)[C@]1(C)[C@@H]2O recorded_result=5.12
